Experiment: MRT in ICR mouse at 20 mg/kg, po by LC-MS/MS analysis
Format: ADME, organism-based
Details: in vivo
MEASURED_METRIC: MRT (h)
I only need the number, in h, no unit after it.

# input # query: MRT of entry `COCC(=O)N1CCN2c3cc4c(N[C@H](C)c5cccc(C(F)F)c5F)nc(C)nc4cc3OC[C@H]2C1`
# output 3.43

# input How about `Cc1nc(N[C@H](C)c2cccc(C(F)F)c2F)c2cc3c(cc2n1)OC[C@H]1CN(C(=O)N2CCOCC2)CCN31` ?
# output 2.14

# input How about `COCC1(C(=O)N2CCN3c4cc5c(N[C@H](C)c6cccc(C(F)F)c6F)nc(C)nc5cc4OC[C@H]3C2)CC1` ?
# output 2.62

# input How about `CNC(=O)N1CCN2c3cc4c(N[C@H](C)c5cccc(C(F)F)c5F)nc(C)nc4cc3OC[C@H]2C1` ?
# output 5.62
